System: SK-MEL-5 melanoma
Experiment Description: NCI-60 one-dose screen, 48 h
Particulars: 10 µM unless noted
This is part of a sample that, as a whole, favours compounds with a hit. Of some 83,000 tested, about 20% had one in any assay. Active and inactive are the calls of the source. The calls were made as follows: active = growth percent below 10; inactive = the rest.
Possible outcomes: active, inactive

1) CCCCC1COc2cccc3c(SCC(=O)N(C)c4cccc5ccccc45)cc[n+]1c23 (stereo unspecified)    inactive
2) COc1ccc2nc(-n3nc(C)cc3C)c(-n3nc(C)cc3C)nc2c1    inactive
3) Cc1cc(O)cc2c1[C@H]1CC[C@]3(C)[C@@H](O)CC[C@H]3[C@@H]1C=C2    inactive
4) Cc1ccccc1-c1cc(-c2ccc(Br)s2)[nH]c(=O)c1C#N    inactive
5) Cn1c2c(cc(S(=O)(=O)c3ccccc3)c1=O)CCc1c-2cnn1-c1ccccc1Cl    inactive
6) CCCCCCCCCCCCCCNc1nc(CO)ncc1-c1ccc(C(F)(F)F)cc1    inactive
7) COc1ccc(-c2c3c(N)c4c(nc3nc3c2c(C)nn3-c2ccccc2)CCCCC4)cc1    inactive
8) O=c1[nH]c(=O)n(Cc2ccc(F)cc2)cc1F    inactive
9) COc1cc(/C=C2\C(=O)N(c3c(Cl)cccc3Cl)c3ccccc32)cc(OC)c1O    inactive
10) COc1cc(Cn2cc(F)c(=O)[nH]c2=O)cc(OC)c1    inactive
11) COc1ccc(-c2nc3sc(C)cn3c2/C=C/C(=O)c2cc(OC)c(OC)c(OC)c2)cc1    active
12) COC(=O)c1c2c(c(C)[n+]([O-])c1C)C(=O)C=C(NCc1cccc(OC)c1)C2=O    active
13) COc1ccc(/C=N/OCC(O)CN2CCC(O)CC2)cc1OC1CCCC1 (stereo unspecified)    inactive
14) O=C1/C(=C/c2ccc([N+](=O)[O-])cc2)Oc2ccc(O)cc21    inactive
15) N#CCCN1CCN(CCC#N)C1=S    inactive
16) Cc1ccc2nc(NC(=O)CSC(=S)N3CCN(Cc4ccccc4)CC3)sc2c1    active
17) COc1cc(C2=NN(c3ccc(S(N)(=O)=O)cc3)C(c3ccc(Cl)cc3)C2)cc(OC)c1OC (stereo unspecified)    inactive
18) Cc1nc2cc(Nc3nc(N4CCCCC4)nc(N4CCOCC4)n3)ccc2n1Cc1ccccc1    inactive
19) COc1ccc(C2=NOC(CC(=O)N(CCO)CCO)C2)cc1OC1CCCC1 (stereo unspecified)    inactive
20) O=C1c2ccccc2C(=O)c2c(Nc3ccc(CCO)cc3)ccc(O)c21    inactive
21) COc1c(O)c2c3c(c1OC)-c1ccccc1CC3N(S(=O)(=O)c1ccc(C)cc1)CC2 (stereo unspecified)    inactive

###

Test system: MCF7 breast
Experiment Description: NCI-60 one-dose screen, 48 h (100 = growth as untreated, 0 = no growth, -100 = all killed)
Particulars: 10 µM unless noted
This is part of a sample that, as a whole, favours compounds with a hit. Of some 83,000 tested, about 20% had one in any assay.
Binary classification by growth, with 20% as an inclusive lower bound for Yes; all other cases are No.

1) COc1ccc(S(=O)(=O)c2ccc(C(N)=O)cc2)cc1NC(=O)c1[nH]c(C)c2c1CCCCC2=O    Yes
2) Clc1nc(-c2ccccn2)nc2sc3c(c12)CCCCCC3    Yes
3) CC1SC(c2cccc(Oc3ccccc3)c2)N(CCc2cccs2)C1=O (stereo unspecified)    No
4) COc1cc(C(=O)N(C(C)C)C2CCCCC2)cc(OC)c1OC    Yes
5) CCOC(=O)n1cc(C2=C(c3cn(C)c4ccccc34)COC2=O)c2ccccc21    No
6) O=C1NC(=O)C(CSc2ccccc2)(c2ccccc2)N1 (stereo unspecified)    Yes
7) CSc1nnc(-c2sc3nnc(-c4ccccc4)c(-c4ccccc4)c3c2O)o1    Yes
8) Brc1ccc(Br)nn1    No
9) Cc1ccc(S(=O)(=O)N2C/C(=C\c3cc(F)cc(F)c3)C(=O)/C(=C/c3cc(F)cc(F)c3)C2)cc1    No
10) O=[N+]([O-])c1ccc(C=C2C(Cl)=C(Cl)C(Cl)=C2Cl)cc1    Yes
11) Cc1cccc2c(=O)c3c(sc12)c(NCCCN)nc1ccccc13    No
12) Cc1ccc(S(=O)(=O)N2CCc3ccc(O)c4c3C2Cc2ccc3c(c2-4)OCO3)cc1 (stereo unspecified)    Yes
13) COc1ccc(Nc2[nH]n(C3=Nc4ccccc4Sc4ccccc43)c(=O)c2C#N)cc1    Yes
14) O=[N+]([O-])c1ccc2nc(N/N=C/c3ccc(O)cc3)sc2c1    Yes
15) O=c1[nH]c(-c2ccccn2)nc2sc3c(c12)CCCCCC3    Yes
16) Cn1c(=O)c(S(=O)(=O)c2ccccc2)cc2ccc3c(cnn3-c3ccc(Cl)cc3)c21    Yes
17) CC(C)(C)[Si](C)(C)OC1[C@@H](COC(=O)NC(=O)CCl)O[C@@H](n2cnc3c(N)ncnc32)[C@H]1O[Si](C)(C)C(C)(C)C (stereo partly specified)    No
18) Cc1cc(Cl)c2c(Cl)ccc(Cl)c2n1    Yes
19) Cc1ccc(N(CSc2ccc(Cl)cc2)CSc2ccc(Cl)cc2)cc1    Yes
20) c1ccc2c(c1)oc1cc3c(cc12)nnc1cccn13    Yes
21) O=c1c2cc(F)ccc2oc2c(NCCNCCO)nc3ccccc3c12    Yes

###

Test system: IGROV1 ovarian
Experiment Description: NCI-60 one-dose screen, 48 h
Particulars: 10 µM unless noted
About 83,000 compounds went through this panel and 20% of them were active in at least one assay; those are over-represented in the sample as a whole. Calls of active or inactive are those of the source. The calls were made as follows: active = growth percent below 10; inactive = the rest.
Outcome codes: active, inactive

1) CC1CCCCN1S(=O)(=O)c1ccc(CN=C=S)cc1 (stereo unspecified)    inactive
2) COc1nc2c(cc1S(=O)(=O)c1ccccc1)CCc1c-2cnn1-c1ccccc1Cl    inactive
3) Cn1cc(C(=O)NCCC(=N)N)cc1NC(=O)CN=C(N)N    inactive
4) O=C(CCc1nnc2sc(-c3ccccc3)nn12)c1nc2ccccc2[nH]1    inactive
5) COc1ccc(Sc2ccc3[nH]c(=O)nc(N)c3c2)cc1    inactive
6) O=C(c1ccccc1)C(Br)C(Br)c1cccc([N+](=O)[O-])c1 (stereo unspecified)    active
7) Brc1ccc(SCN(CSc2ccc(Br)cc2)Cc2ccccc2)cc1    inactive
8) CN1CCC(OC2c3ccccc3CCc3ccccc32)CC1    inactive
9) COc1ccc(-c2c3c(N)c4c(nc3nc3c2c(C)nn3-c2ccccc2)CCCC4)cc1    inactive
10) O=C1c2[nH]cc(CN[C@@H]3CCCN3)c2C(=O)c2c1c(O)c1ccccc1c2O    active
11) COc1ccc2c(c1)c(=O)oc1c(C)c(OCC(C)=O)ccc12    inactive
12) COc1ccc(-c2nn(-c3ccc(NC(=O)c4ccc(Cl)c(Cl)c4)cc3)cc2-c2ccncc2)cc1Cl    inactive
13) Cc1c(C(=O)Nc2nc(-c3ccccc3)cs2)nnn1-c1ccccc1Br    inactive
14) Cc1c(NCC(=O)Nc2nc3ccccc3[nH]2)c(=O)n(-c2ccccc2)n1C    inactive
15) O=c1[nH]c(=S)c2c(n1CCCO)CCC2    inactive
16) O=C1CN2CCC1C/C2=C\c1ccnc2c(Cl)cccc12 (stereo unspecified)    inactive
17) O=C1Nc2ccc(Cl)cc2/C1=N/N=C(c1ccccc1)c1ccccc1    inactive
18) Cc1ccc(S(=O)(=O)N2C/C(=C\c3cc(F)cc(F)c3)C(=O)/C(=C/c3cc(F)cc(F)c3)C2)cc1    active
19) Cc1ccc(-c2nnc(COc3ccc(-c4nnc(N)s4)cc3)o2)cc1    inactive
20) COC(=O)c1c2c(c(C)[n+]([O-])c1C)C(=O)C=C(NCc1cccc(OC)c1)C2=O    active
21) COc1cc2cc(Oc3ccc(NC(=O)Nc4cccc(C(F)(F)F)c4)cc3)c(C)nc2cc1OCCN1CCCCC1    active

###

The following compounds are shown together with reported growth values.
Test system: MDA-MB-231 breast
Experiment Description: NCI-60 one-dose screen, 48 h (100 = growth as untreated, 0 = no growth, -100 = all killed)
Particulars: 10 µM unless noted
Compounds without any hit were thinned out: in the full panel of roughly 83,000, 20% have a hit.
Quantity Kind: growth (%)

1) COc1ccc(OC2=C(C#N)C(=N)N3c4ccccc4Sc4ccccc4C3N2)cc1 (centres undefined)    60.8
2) O=C(NCc1ccco1)C1CCN(S(=O)(=O)c2ccc(Cl)cc2)CC1    68.9
3) CON=C1C[C@]2(C[C@@H]3C[C@@H](C/C=C(\C)C[C@@H](C)/C=C/C=C4\CO[C@@H]5[C@H](O)C(C)=C[C@@H](C(=O)O3)[C@]45O)O2)O[C@H](/C(C)=C/C(C)C)[C@H]1C    54
4) COc1cccc(C2CC(=O)Nc3cc4c(cc32)OCO4)c1OC (centres undefined)    97.3
5) COc1ccccc1CNCCCCCCCCCCCCN1C(=O)c2ccc3c4c(ccc(c24)C1=O)C(=O)N(CCCCCCCCCCCCNCc1ccccc1OC)C3=O    64.1
6) COC(=O)[C@H]1CCCN1C(=O)[C@H]1CCCN1C(=O)[C@@H](Cc1c[nH]c2ccccc12)NC(=S)Nc1cc(C(F)(F)F)cc(C(F)(F)F)c1    44.5
7) COc1ccc(-c2nc3sc(C)cn3c2/C=C/C(=O)c2cc(OC)c(OC)c(OC)c2)cc1    39.5
8) COc1cc(/C=N/NC(=O)c2cnn3c2NC(c2ccccc2)C3)ccc1OC1CCCC1 (centres undefined)    52.7
9) COc1ccc(OC)c(C2C(C#N)=C(N)Oc3cc(O)ccc32)c1 (centres undefined)    99
